Entry source: patent US20240002505A1

Provide the reported Kd of each item.
System under test: T1, CD5 antigen (Octet affinity determination, Example 8) (UniProt P06127 25-372, limits assumed)
T1 sequence (looked up): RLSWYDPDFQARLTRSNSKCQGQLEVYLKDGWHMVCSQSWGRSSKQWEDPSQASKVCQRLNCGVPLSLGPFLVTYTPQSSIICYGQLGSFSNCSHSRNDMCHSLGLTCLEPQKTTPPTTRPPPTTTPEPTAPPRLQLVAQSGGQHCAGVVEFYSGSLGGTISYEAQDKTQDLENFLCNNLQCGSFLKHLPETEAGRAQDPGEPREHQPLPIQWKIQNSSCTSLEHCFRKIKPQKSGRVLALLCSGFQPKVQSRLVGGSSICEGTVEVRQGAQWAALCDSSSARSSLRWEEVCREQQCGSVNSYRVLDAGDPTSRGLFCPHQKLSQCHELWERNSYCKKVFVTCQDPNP
Experiment description: BLI (Octet), IgG loaded on the biosensor, CD5 antigen 400 to 12.5 nM, 1:1 model
Numbers only, in nM.

# annotated cases, reported Kd shown
So what does the record say about Kd for Clone 35 anti-CD5 IgG (antibody, V domains shown, The VH entry as printed begins with MA carried over from the scFv) VH: QVQLVESGGGLVQPGGSLRLSCAASGFTFSSYAMSWVRQTPGKGLEWVSTITDSGDITYYTASVQGRFTISRDNSKNTLYLQMNSLRAEDTAVYYCARMSSHWYFSADYWGQGTLVTVSS VL: QSVLTQPPSVSAAPGQKVTISCSGSSSNIGNNYVSWYQQLPGTAPKLLIYDNNKRPSGIPDRFSGSKSGTSATLGITGLQTGDEADYYCGTWDSSLSAVVFGGGTKLTVLG ? 13.6

Could you tell me which Kd is on file for H65 anti-CD5 IgG (antibody, V domains shown) VH: QIQLVQSGPELKKPGETVKISCKASGYTFTNYGMNWVKQAPGKGLRWMGWINTHTGEPTYADDFKGRFAFSLETSASTAYLQINNLKNEDTATYFCTRRGYDWYFDVWGAGTTVTVSS VL: DIKMTQSPSSMYASLGERVTITCKASQDINSYLSWFHHKPGKSPKTLIYRANRLVDGVPSRFSGSGSGQDYSLTISSLDYEDMGIYYCQQYDESPWTFGGGTKLEIK ? 2.25

--- query ---
Given the binder Clone 32 anti-CD5 IgG (antibody, V domains shown) VH: QVQLVESGGGLVKPGGSLRLSCAASGFTFSSYSMNWVRQAPGKGLEWVSSISSSSSYIYYADSVKGRFTISRDNAKNSLYLQMNSLRAEDTAVYYCARGNPWYGVDYWGQGTLVTVSS VL: QSVLTQPPSVSAAPGQKVTISCSGSNSNIGNNYVSWYQQLPGTAPKRLIYDNNKRPSGIPDRFSGSKSGTSATLGITGLQTGDEADYYCGIWDSSLDAYVFGTGTKVTVLG , what is its reported Kd? 28.3
